assay: Log P by HPLC on reversed phase columns, method [a] (EEC directive 79/831 Annex V.A8); format: physicochemical; details: reversed phase HPLC column; method [a], HPLC on reversed phase columns; read-out: logP
METRIC: chromatographic logP
One number for each entry.

// worked examples, chromatographic logP included
- MOLECULE: "COc1ccc(C2(Nc3ncc(-c4nnc(C(F)F)o4)cn3)CC2)cc1OC [I.243]"
  VALUE: 2.39
- MOLECULE: "CN(c1ncc(-c2nnc(C(F)F)o2)cn1)C1(c2ccccc2F)CC1 [I.221]"
  VALUE: 3.98
- MOLECULE: "CC(C)(Nc1ncc(-c2nnc(C(F)F)o2)cn1)c1ccccc1 [I.197]"
  VALUE: 3.08
- MOLECULE: "FC(F)c1nnc(-c2cnc(NC3(c4ccccn4)CCCC3)nc2)o1 [I.219]"
  VALUE: 1.38

Request: // query chromatographic logP value for entry FC(F)(F)c1nnc(-c2cnc(NC3(c4ccccc4)CCC3)nc2)s1 [I.173]
Result: 4.12
